Record form. Attribute: PGI (% of DB1127 at 10 uM). Fill in for each entry.
System: E. multilocularis metacestodes
Experiment: PGI assay: phosphoglucose isomerase release from damaged metacestodes
Type: cell-based, Echinococcus multilocularis
Settings: 10 μM, 5 days, single wells, relative to DB1127 (10 μM)
Report only the number, with the unit % understood.

Query string: What value of measured PGI (% of DB1127 at 10 uM) is listed for COc1cccc(-c2nn(C)c3sc(C(=O)NCCN4CCN(c5ccccc5F)CC4)cc23)c1 ?
Result string: -17.87

Query string: And what about the compound Br.CCn1c2c(c(=N)c3c1CCC3)CCCC2 ?
Result string: 2.86

Query string: And what about the compound COc1ccc(C2NCCc3c2[nH]c2ccccc32)cc1CN1CCN(c2ccc(F)cc2)CC1.Cl (stereo not drawn) ?
Result string: 51.28

Query string: And what about the compound O=C(NCC1Cc2cccc(-c3ccncc3)c2O1)c1csc2c1CCCC2 (stereo not drawn) ?
Result string: -10.62

Query string: And what about the compound Cc1ccc2nc(C)cc(Nc3cccc(C(F)(F)F)c3)c2c1.Cl ?
Result string: 7.52

Query string: And what about the compound CCC(c1ccccc1)c1nn2c(-c3cccs3)nnc2s1 (stereo not drawn) ?
Result string: -39.84

Query string: And what about the compound O=c1nc(C=Cc2ccc(Br)cc2)oc2ccccc12 ?
Result string: 22.37

Query string: And what about the compound CC(C)(C)C(=O)Nc1ccc(C(=O)Nc2cccc(-c3nc4ccccc4[nH]3)c2)cc1 ?
Result string: 17.15

Query string: And what about the compound O=C(NNc1cc(N2CCCC2)nc(N2CCCC2)n1)c1ccccc1 ?
Result string: -1.95

---

Test system: E. multilocularis metacestodes
Assay: PGI assay: phosphoglucose isomerase release from damaged metacestodes
Type: cell-based, Echinococcus multilocularis
Settings: 10 μM, 5 days, single wells, relative to DB1127 (10 μM)
Protocol: The preparation of E. multilocularis metacestode material (strain H95) from intraperitoneally (i.p.) infected BALB/c mice was performed as described earlier. […] For screening of the Malaria Box against E. multilocularis metacestodes, the PGI screening assay was applied that measures the release of the enzyme phosphoglucose isomerase (PGI) upon physical impairment of metacestodes. […] Averages, standard deviations and EC50 values were calculated in Microsoft Excel 2010.
Record form. Attribute: PGI (% of DB1127 at 10 uM). Fill in for each entry.
Report only the number, with the unit % understood.

Query string: What value of measured PGI (% of DB1127 at 10 uM) is listed for Cc1cc(N2CCCC2)nc(Nc2ccc(NC(=O)CCc3ccccc3)cc2)n1 ?
Result string: -21.92

Query string: And what about the molecule Fc1ccc2[nH]c3c(NCCCN4CCOCC4)ncnc3c2c1 ?
Result string: -31.05

Query string: And what about the molecule CC(Oc1ccc(NC(=O)c2cccs2)cc1)C(=O)c1ccc(Cl)cc1 (stereo not shown) ?
Result string: 2.30

Query string: And what about the molecule CCOc1cc2c(cc1OCC)C(c1cc(Cl)ccc1O)NCC2 (stereo not shown) ?
Result string: 32.45

Query string: And what about the molecule Cc1ccc(-c2nc3ccccc3o2)cc1NCc1cc(Cc2ccccc2)ccc1O ?
Result string: -2.94

Query string: And what about the molecule CCCc1c(C)nc2ccc(Br)cc2c1O ?
Result string: -30.45

Query string: And what about the molecule CN1c2ccccc2N(C)C1c1ccc2c(c1)OCO2 ?
Result string: -36.57

Query string: And what about the molecule Cc1sc(NC(=O)c2ccco2)c(C(c2cccnc2)N2CCC(Cc3ccccc3)CC2)c1C (stereo not shown) ?
Result string: -1.97

Query string: And what about the molecule Nc1nc(Nc2cccc(F)c2)nc2ccccc12 ?
Result string: -19.84

Query string: And what about the molecule O=c1cc(NC2CCN(CCCc3ccccc3)CC2)c2cc(Cl)ccc2o1 ?
Result string: -0.88

---

System: E. multilocularis metacestodes
Experiment: PGI assay: phosphoglucose isomerase release from damaged metacestodes
Type: cell-based, Echinococcus multilocularis
Conditions: 10 μM, 5 days, single wells, relative to DB1127 (10 μM)
Give y when the value for PGI (% of DB1127 at 10 uM) is at least -10%. Give n when it is less.

Query string: Please check the record O=C(Nc1ccccc1O)c1ccc(Oc2cccc(C(=O)Nc3ccccc3O)c2)cc1 [MMV665888] and state if its PGI (% of DB1127 at 10 uM) is at or above -10%.
Result string: n

Query string: And what about the compound COc1ccc(CNC2CCN(c3ccc(NC(=O)c4cccc(Cl)c4)cc3)CC2)cc1OC [MMV666067] ?
Result string: n

Query string: And what about the compound Cc1cc(N2CCN(C3CCCC3)CC2)n2c(nc3ccccc32)c1C#N [MMV006706] ?
Result string: y

Query string: And what about the compound CC(C)=CCN1CCC(C(=O)Nc2ccc(-c3nc4ccccc4[nH]3)cc2)CC1 [MMV665946] ?
Result string: n

Query string: And what about the compound COc1ccc(C(=O)Nc2nonc2-c2ccc(OC)c(OC)c2)cc1Cl [MMV011567] ?
Result string: y

Query string: And what about the compound COc1ccc(C2C(C(=O)Nc3cccc(OC)c3)c3ccccc3C(=O)N2C2CCCCC2)cc1 (stereo not drawn) [MMV008455] ?
Result string: n

Query string: And what about the compound Cc1ccc(C(=O)c2oc3ccc4c(C)cc(=O)oc4c3c2C)cc1 [MMV086103] ?
Result string: y

Query string: And what about the compound Nc1ccc(-c2nc3cc(Cc4ccc5[nH]c(-c6ccc(N)cc6)nc5c4)ccc3[nH]2)cc1 [MMV665943] ?
Result string: y

Query string: And what about the compound COc1ccc(C(=O)C2CC2c2ccc(Cl)cc2)cc1 (stereo not drawn) [MMV665924] ?
Result string: n

---

Record form. Attribute: PGI (% of DB1127 at 10 uM). Fill in for each entry.
System: E. multilocularis metacestodes
Assay: PGI assay: phosphoglucose isomerase release from damaged metacestodes
Assay type: cell-based, Echinococcus multilocularis
Conditions: 10 μM, 5 days, single wells, relative to DB1127 (10 μM)
Report only the number, with the unit % understood.

Query string: What value of measured PGI (% of DB1127 at 10 uM) is listed for c1ccc2c(NCCc3c[nH]c4ccccc34)c3ccccc3nc2c1 ?
Result string: 41.08

Query string: And what about the compound CCCCCCn1c(=N)n(CC(O)COc2cccc(C)c2)c2ccccc21.Cl (centres unmarked) ?
Result string: 130.28

Query string: And what about the compound CCN(CC)CCNc1ccnc2cc3ccccc3cc12 ?
Result string: -4.34

Query string: And what about the compound O=C(CCc1ccco1)NC1CCN(CC2(c3ccc(Cl)cc3)CCC2)CC1 ?
Result string: -18.89

Query string: And what about the compound CC(C)(C)c1ccc(C(=O)Nc2c3c(nn2-c2cccc(Cl)c2)CSC3)cc1 ?
Result string: -7.56

---

Test system: E. multilocularis metacestodes
Experiment: PGI assay: phosphoglucose isomerase release from damaged metacestodes
Assay type: cell-based, Echinococcus multilocularis
Details: 10 μM, 5 days, single wells, relative to DB1127 (10 μM)
Give T when the value for PGI (% of DB1127 at 10 uM) is at least 30%. Give F when it is less.

Query string: Please check the record CCCc1cc(O)c2c3c(c(=O)oc2c1)CN(C)CC3 and state if its PGI (% of DB1127 at 10 uM) is at or above 30%.
Result string: F

Query string: And what about the molecule CCOc1cc(Br)c(C(C)NC(=O)c2cccc(OC)c2)cc1OCC (centres unmarked) ?
Result string: F

Query string: And what about the molecule OC(CNC1CCCCC1)Cn1c2ccccc2c2ccccc21 (centres unmarked) ?
Result string: F

Query string: And what about the molecule COc1ccc(C2c3ccc4ccccc4c3Oc3ncn(CCCN(C)C)c(=N)c32)cc1 (centres unmarked) ?
Result string: T

Query string: And what about the molecule COc1ccc(OC)c(C2C3=C(CC(C)(C)CC3=O)N(c3ccc(Cl)c(Cl)c3)C3=C2C(=O)CC(C)(C)C3)c1 ?
Result string: F

---

Test system: E. multilocularis metacestodes
Assay: PGI assay: phosphoglucose isomerase release from damaged metacestodes
Type: cell-based, Echinococcus multilocularis
Conditions: 10 μM, 5 days, single wells, relative to DB1127 (10 μM)
Method: The preparation of E. multilocularis metacestode material (strain H95) from intraperitoneally (i.p.) infected BALB/c mice was performed as described earlier. […] For screening of the Malaria Box against E. multilocularis metacestodes, the PGI screening assay was applied that measures the release of the enzyme phosphoglucose isomerase (PGI) upon physical impairment of metacestodes. […] Averages, standard deviations and EC50 values were calculated in Microsoft Excel 2010.
Record form. Attribute: PGI (% of DB1127 at 10 uM). Fill in for each entry.
Report only the number, with the unit % understood.

Query string: What value of measured PGI (% of DB1127 at 10 uM) is listed for COc1cc(C(=O)ON=C(N)Cc2cccc3ccccc23)cc(OC)c1OC ?
Result string: 1.57

Query string: And what about the molecule CN1CCN(c2c3c(c(C#N)c4nc5ccccc5n24)CCC3)CC1 ?
Result string: -35.30

Query string: And what about the molecule Cl.OC(CNCc1ccccc1)Cn1c2ccccc2c2ccccc21 (centres unmarked) ?
Result string: -2.41

Query string: And what about the molecule COc1ccccc1CNC(=O)C1c2ccccc2C(=O)N(CC(C)C)C1c1cccs1 (centres unmarked) ?
Result string: -8.86

Query string: And what about the molecule Cc1ccc(C2CC(C(F)(F)F)n3nc(C(=O)N4CCN(C(c5ccccc5)c5ccccc5)CC4)cc3N2)cc1 (centres unmarked) ?
Result string: -1.50

Query string: And what about the molecule CCN(CC)CCNc1ccnc2cc(Cl)ccc12 ?
Result string: -37.06

Query string: And what about the molecule Cc1ccc(Nc2nc(N)c3ccccc3n2)cc1Cl ?
Result string: 12.79

Query string: And what about the molecule CCOC(=O)c1cnc2ccc(OC)cc2c1NCc1ccccc1 ?
Result string: -12.77

Query string: And what about the molecule Cc1ccc(Cl)cc1N1CCN(CCCNC(=O)C2CCN(c3nc4ccccc4[nH]3)CC2)CC1 ?
Result string: -24.98

Query string: And what about the molecule CCOc1cc(CNC(C)C(O)c2ccccc2)cc(Cl)c1OCC (centres unmarked) ?
Result string: 30.39

Query string: And what about the molecule COc1ccc(-c2cc(=O)oc3c4c(ccc23)OCN(Cc2ccc(F)cc2)C4)cc1 ?
Result string: 3.81

Query string: And what about the molecule CCCc1c(C)nc2ccccc2c1O ?
Result string: -67.20

Query string: And what about the molecule O=c1c2c([nH]c3ccccc13)CCCC2 ?
Result string: -19.31

Query string: And what about the molecule Cc1cc(C)c2nc(N3CCC(C(=O)NCCCN4CCC(N5CCCCC5)CC4)CC3)sc2c1 ?
Result string: 36.03

Query string: And what about the molecule CN(C)c1ccc(-c2nc3ccc(N)cc3[nH]2)cc1 ?
Result string: -14.14

Query string: And what about the molecule COc1cccc(C(=O)NC(c2ccc(C)cc2)c2cc(Cl)c3cccnc3c2O)c1 (centres unmarked) ?
Result string: -25.94

Query string: And what about the molecule CC(C)(C)c1ccc(O)c(CNC2CCCCC2)c1 ?
Result string: 1.27

Query string: And what about the molecule Cc1cc(Nc2ccc(Cl)cc2)n2nc(C(F)(F)F)nc2n1 ?
Result string: -32.20

Query string: And what about the molecule Cl.c1ccc2c(NCCCCCCNc3c4c(nc5ccccc35)CCCC4)c3c(nc2c1)CCCC3 ?
Result string: -3.16

Query string: And what about the molecule COc1ccc(Nc2nc(NCc3ccccc3)c3ccccc3n2)cc1 ?
Result string: 109.36

Query string: And what about the molecule Cc1cc(=O)oc2c1ccc1oc(C(=O)c3ccccc3)c(C)c12 ?
Result string: -7.57

Query string: And what about the molecule Cc1ccc(Nc2nc(NCCO)c3ccccc3n2)cc1C ?
Result string: 16.86

Query string: And what about the molecule CCCn1c(=N)c(C(=O)NC2CCCCC2)cc2c(=O)n3cccc(C)c3nc21 ?
Result string: -2.96

Query string: And what about the molecule COc1ccc2nc(C)cc(Nc3ccc(Cl)cc3)c2c1 ?
Result string: -32.27

Query string: And what about the molecule CCOc1ccc(CCNC(=O)c2cccs2)cc1OCC ?
Result string: -3.44

Query string: And what about the molecule COc1ccc(Nc2nc(N/N=C/c3ccc(O)cc3)nc(Nc3ccc([N+](=O)[O-])cc3)n2)cc1 ?
Result string: 5.99

Query string: And what about the molecule CCOc1cc2c(cc1OCC)C(c1cc(Cl)c(O)c(OCC)c1)NCC2 (centres unmarked) ?
Result string: -21.47

Query string: And what about the molecule CC1(c2ccccc2)Nc2ccccc2-c2nc3ccccc3n21 (centres unmarked) ?
Result string: -22.40

Query string: And what about the molecule O=C(Cc1ccccc1)NC(c1ccc(Cl)cc1)c1c(O)ccc2ccccc12 (centres unmarked) ?
Result string: 15.67

Query string: And what about the molecule COc1cc(CNCCc2ccc(Cl)cc2)cc(OC)c1O ?
Result string: -10.12

Query string: And what about the molecule O=C(Nc1ccc(-c2nc3ccccc3[nH]2)cc1)c1ccc(Cl)c(Cl)c1 ?
Result string: -1.75

Query string: And what about the molecule CC(C)(C)CC(C)(C)NCC(O)COc1ccc2c(c1)CCC2.Cl (centres unmarked) ?
Result string: -44.11

Query string: And what about the molecule CCC(=O)Nc1nnc(Cc2ccc(OC)c(OC)c2)s1 ?
Result string: -6.11

Query string: And what about the molecule Cc1cc(NCCN2CCCCC2)c2ccc3ccccc3c2n1 ?
Result string: -66.37

Query string: And what about the molecule COc1ccc(C)c2sc(N(Cc3cccnc3)C(=O)c3ccc(C#N)cc3)nc12 ?
Result string: -0.13

Query string: And what about the molecule CCCCNCC(O)(c1ccc(Cl)cc1)c1ccc(Cl)cc1 ?
Result string: -0.59

Query string: And what about the molecule COc1ccc2c(c1OC)C(=O)N1c3ccccc3N=C(c3ccc(C)cc3)CC21 (centres unmarked) ?
Result string: -0.60

Query string: And what about the molecule Cc1ccc(-c2cc(C(=O)Nc3ccc(S(=O)(=O)N4CCCCC4)cc3)[nH]n2)c(O)c1 ?
Result string: -8.23
